Reference source: PubChem BioAssay (NCI)

system: HS 578T breast
Classes used: label 1 for active, label 0 for inactive

> print(dat)
                                   compound  target.under.test  answer.label
1  Cc1cc(C(O)CN(C)C)cc2c1ccc1cc(C(C)C)ccc12 (stereo not given)     HS 578T breast       label 0
2  CC1(C)CC[C@]2(C(N)=O)CC[C@]3(C)C(=CC[C@@H]4[C@@]5(C)C/C(=C/c6ccncc6)C(=O)C(C)(C)[C@@H]5CC[C@]43C)[C@@H]2C1     HS 578T breast       label 0
3  O=C1C=CC(=O)c2c(O)c(N3CCN(CCOCCO)CC3)c(Cl)c(O)c21     HS 578T breast       label 1
4  CC1=C(C(=O)Nc2ccc(Cl)c(Cl)c2)C(c2ccccc2O)NC(=O)N1 (stereo not given)     HS 578T breast       label 0
5  CSC1=NCC2(S1)c1ccccc1N(C(=O)OC(C)(C)C)C2N1CCCCC1 (stereo not given)     HS 578T breast       label 0
